- assayProcedure: Probe fluorescence ratio response to arachidonic acid relative to ADIFAB2
- Format: binding
- testContext: arachidonic acid; response relative to ADIFAB2
observationType: DR/DR AA
// no unit string in output, number only

Please review the entries below; each comes with its answer.
molecule: 36C3, 72A (protein, listed as Rattus norvegicus, PEPTIDE (1)...(131) wild-type rat intestinal fatty acid binding protein) AFDGTWKVDRNENYEKFMEKMGINVVKRKLGAHDNCKLTITQEGNKFTVKESSNFRNIDVVFELGVDFAYSAADGTELTGTWTMEGNKLVGKFKRVDNGKELIAVREISGNELIQTYTYEGVEAKRIFKKE
assayValue: −0.22
--
molecule: 11G, 72A (protein, listed as Rattus norvegicus, PEPTIDE (1)...(131) wild-type rat intestinal fatty acid binding protein) AFDGTWKVDRGENYEKFMEKMGINVVKRKLGAHDNLKLTITQEGNKFTVKESSNFRNIDVVFELGVDFAYSAADGTELTGTWTMEGNKLVGKFKRVDNGKELIAVREISGNELIQTYTYEGVEAKRIFKKE
assayValue: 0.63
--
molecule: 17N, 72A (protein, listed as Rattus norvegicus, PEPTIDE (1)...(131) wild-type rat intestinal fatty acid binding protein) AFDGTWKVDRNENYEKNMEKMGINVVKRKLGAHDNLKLTITQEGNKFTVKESSNFRNIDVVFELGVDFAYSAADGTELTGTWTMEGNKLVGKFKRVDNGKELIAVREISGNELIQTYTYEGVEAKRIFKKE
assayValue: 0.47
--
molecule: 72H 73P 74L (protein, listed as Rattus norvegicus, PEPTIDE (1)...(131) wild-type rat intestinal fatty acid binding protein) AFDGTWKVDRNENYEKFMEKMGINVVKRKLGAHDNLKLTITQEGNKFTVKESSNFRNIDVVFELGVDFAYSHPLGTELTGTWTMEGNKLVGKFKRVDNGKELIAVREISGNELIQTYTYEGVEAKRIFKKE
assayValue: 4.597
--
molecule: 14L 18L 31L 73G 117V 72A (protein, listed as Rattus norvegicus, PEPTIDE (1)...(131) wild-type rat intestinal fatty acid binding protein) AFDGTWKVDRNENLEKFLEKMGINVVKRKLLAHDNLKLTITQEGNKFTVKESSNFRNIDVVFELGVDFAYSAGDGTELTGTWTMEGNKLVGKFKRVDNGKELIAVREISGNELIQTVTYEGVEAKRIFKKE
assayValue: 1.180
--
molecule: 18I 31F 73V 72A (protein, listed as Rattus norvegicus, PEPTIDE (1)...(131) wild-type rat intestinal fatty acid binding protein) AFDGTWKVDRNENYEKFIEKMGINVVKRKLFAHDNLKLTITQEGNKFTVKESSNFRNIDVVFELGVDFAYSAVDGTELTGTWTMEGNKLVGKFKRVDNGKELIAVREISGNELIQTYTYEGVEAKRIFKKE
assayValue: 2.649

GET /value?item= 82V, 72A (protein, listed as Rattus norvegicus, PEPTIDE (1)...(131) wild-type rat intestinal fatty acid binding protein) AFDGTWKVDRNENYEKFMEKMGINVVKRKLGAHDNLKLTITQEGNKFTVKESSNFRNIDVVFELGVDFAYSAADGTELTGTVTMEGNKLVGKFKRVDNGKELIAVREISGNELIQTYTYEGVEAKRIFKKE &field=DR/DR AA returns 0.757

// recorded DR/DR AA for 72T 73W 74E (protein, listed as Rattus norvegicus, PEPTIDE (1)...(131) wild-type rat intestinal fatty acid binding protein) AFDGTWKVDRNENYEKFMEKMGINVVKRKLGAHDNLKLTITQEGNKFTVKESSNFRNIDVVFELGVDFAYSTWEGTELTGTWTMEGNKLVGKFKRVDNGKELIAVREISGNELIQTYTYEGVEAKRIFKKE : 2.442

Reported DR/DR AA ( 73W 74I (protein, listed as Rattus norvegicus, PEPTIDE (1)...(131) wild-type rat intestinal fatty acid binding protein) AFDGTWKVDRNENYEKFMEKMGINVVKRKLGAHDNLKLTITQEGNKFTVKESSNFRNIDVVFELGVDFAYSLWIGTELTGTWTMEGNKLVGKFKRVDNGKELIAVREISGNELIQTYTYEGVEAKRIFKKE ) = 0.757

According to the records, this molecule 38Q 106W 117A 72A (protein, listed as Rattus norvegicus, PEPTIDE (1)...(131) wild-type rat intestinal fatty acid binding protein) AFDGTWKVDRNENYEKFMEKMGINVVKRKLGAHDNLKQTITQEGNKFTVKESSNFRNIDVVFELGVDFAYSAADGTELTGTWTMEGNKLVGKFKRVDNGKELIAVWEISGNELIQTATYEGVEAKRIFKKE displays DR/DR AA of 1.078

Record summary for 106V1, 72A (protein, listed as Rattus norvegicus, PEPTIDE (1)...(131) wild-type rat intestinal fatty acid binding protein) AFDGTWKVDRNENYEKFMEKMGINVVKRKLGAHDNLKLTITQEGNKFTVKESSNFRNIDVVFELGVDFAYSAADGTELTGTWTMEGNKLVGKFKRVDNGKELIAVVEISGNELIQTYTYEGVEAKRIFKKE : reported DR/DR AA = 0.61
